PROTOCOL DETAILS: Dog PK study #3 (Compound A PO once daily 5 days, 5/10/20 mg/kg; PK, body weight, hematology)
Format: in vivo, beagle dogs
TEST CONTEXT: male, beagle, dog, plasma, po, 20 mg/kg, Day 5, 20 mg/kg dose PO; mean; read-out: MRT0-inf
PARAMETER MEASURED: MRT inf

>  <MOLECULE SMILES>
Cn1cc(-c2ccccc2)c(-c2cn(C)c(=O)c3[nH]c(-c4cnn(C(F)(F)F)c4)cc23)cc1=O

>  <PARAMETER MEASURED>
MRT inf

>  <RESULT>
20.1 days

$$$$

Where these numbers come from: patent US20260217701A1
